# Test system: SK-OV-3 ovarian
# procedure_text: NCI tumour cell line growth inhibition, 48 h
value_kind: TGI

Previously resolved entries follow.
INSERT INTO results (molecule, target, value_kind, value_observed) VALUES
  ('Cc1c(OC(C)C(=O)O)ccc2c(-c3ccccc3)cc(=O)oc12 (stereo not given)', 'SK-OV-3 ovarian', 'TGI', '> 100 µM'),
  ('CCc1c2c(nc3ccc(OCc4ccc(B(O)O)cc4)cc13)-c1cc3c(c(=O)n1C2)COC(=O)[C@]3(O)CC', 'SK-OV-3 ovarian', 'TGI', '0.347 µM'),
  ('C[C@@H](NC(C#N)c1ccco1)c1ccccc1 (stereo not given in full)', 'SK-OV-3 ovarian', 'TGI', '> 100 µM');

Per the record, Cn1ccnc1CCc1c(Cl)cccc1Cl has TGI of > 100 µM

Per the record, CC1CC[C@@]2(OC1)OC1C[C@H]3[C@@H]4CC=C5CC(OC6OC(CO)C(OC7OC(CO)C(O)C(OC8OCC(O)C(O)C8O)C7OC7OC(CO)C(OC8OC(C)C(OC9OC(C)C(O)C(O)C9O)C(O)C8O)C(O)C7O)C(O)C6O)CCC5(C)[C@H]4CCC3(C)C1[C@@H]2C (stereo not given in full) has TGI of 17.3 µM

Per the record, O=c1[nH]cc(NCCCl)c(=O)[nH]1 has TGI of > 100 µM

Per the record, Nc1ncn([C@@H]2S[C@H](CO)[C@@H](O)[C@@H]2F)c(=O)n1 has TGI of > 100 µM

Per the record, CCSCCCSCCSCC has TGI of > 100 µM

Per the record, C=CCSC1=N/C(=C\c2ccc(Cl)cc2)C(=O)N1CC=C has TGI of > 100 µM

Per the record, COc1cc2c(c3c1c(=O)c1ccccc1n3C)C=CC1(CCCC1)O2 has TGI of 38.4 µM

Numbers sourced from PubChem BioAssay (NCI).
